The values you see were collected from patent US20220227772A1.

Assay: Plasma and brain compound levels in wild-type mice
Assay type: in vivo, mouse
Details: female, mouse, brain, intraperitoneal, 1 h @ 2.5 mg/kg, read-out: Brain conc.
The reader will find reported concentration at 1 h values listed item by item below.
endpoint: concentration at 1 h (nM)

- compound: "[2H][C@](C)(Nc1c(-c2c(F)cc(F)cc2F)c(Cl)nc2ncnn12)C(C)(C)C (single isomer, unassigned)"
  endpoint.unit: "nM"
  measurement: 296
- compound: "[2H]C(C)(Nc1c(-c2c(F)cc(F)cc2F)c(Cl)nc2ncnn12)C(C)C (single isomer, unassigned)"
  endpoint.unit: "nM"
  measurement: 551
